The measured values listed here are drawn from ChEMBL document CHEMBL3407481.

# test.system: Transient receptor potential cation channel subfamily V member 1 (Homo sapiens, UniProt Q8NER1)
# Sequence (Q8NER1 whole entry): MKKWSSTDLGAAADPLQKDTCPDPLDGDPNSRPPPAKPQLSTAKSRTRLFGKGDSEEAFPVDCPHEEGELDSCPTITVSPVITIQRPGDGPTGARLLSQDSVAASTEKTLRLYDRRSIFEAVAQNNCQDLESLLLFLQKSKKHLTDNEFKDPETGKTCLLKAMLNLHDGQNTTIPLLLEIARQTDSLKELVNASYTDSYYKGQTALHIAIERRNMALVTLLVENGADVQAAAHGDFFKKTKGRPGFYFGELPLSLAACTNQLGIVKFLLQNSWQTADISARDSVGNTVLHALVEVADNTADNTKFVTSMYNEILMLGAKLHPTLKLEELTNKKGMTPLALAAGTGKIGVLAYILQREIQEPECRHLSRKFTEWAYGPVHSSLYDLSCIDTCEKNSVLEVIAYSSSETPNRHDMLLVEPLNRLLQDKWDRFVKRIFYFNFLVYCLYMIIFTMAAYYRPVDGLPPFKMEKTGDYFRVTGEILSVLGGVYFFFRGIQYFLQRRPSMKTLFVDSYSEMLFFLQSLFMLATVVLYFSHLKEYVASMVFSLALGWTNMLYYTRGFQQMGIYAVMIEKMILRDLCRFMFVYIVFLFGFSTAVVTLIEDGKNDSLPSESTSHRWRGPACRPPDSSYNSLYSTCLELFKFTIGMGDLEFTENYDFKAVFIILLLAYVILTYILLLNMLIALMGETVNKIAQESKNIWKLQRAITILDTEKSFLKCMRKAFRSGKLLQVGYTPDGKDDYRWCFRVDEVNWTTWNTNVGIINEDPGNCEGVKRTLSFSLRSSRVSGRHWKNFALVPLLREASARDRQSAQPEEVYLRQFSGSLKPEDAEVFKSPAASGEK
# test.description: Antagonist activity at human TRPV1 expressed in CHO cells assessed as inhibition of N-arachidonoyl dopamine-induced activity by FLIPR assay
# Format: cell-based
pKi: −log10 of the molar value.
Reported pKi is given for each of the following molecules.

# molecule, pKi
measured = [
    ("CC(C(=O)NCc1ccc(C(F)(F)Cl)nc1OC1CCCC1)c1ccc(NS(C)(=O)=O)c(F)c1 (stereo not drawn)", 10.40),
    ("CC1CCN(c2nc(C(F)(F)F)ccc2CNC(=O)C(C)c2ccc(NS(C)(=O)=O)c(F)c2)CC1 (stereo not drawn)", 10.70),
    ("CCCCOc1nc(C(F)(F)Cl)ccc1CNC(=O)C(C)c1ccc(NS(C)(=O)=O)c(F)c1 (stereo not drawn)", 10.70),
]
